Target: T1, HCV Core1-169 (HCV-1, UniProt P26664 1-169)
T1 construct: also called Solid Phase HCV Core
T1 sequence: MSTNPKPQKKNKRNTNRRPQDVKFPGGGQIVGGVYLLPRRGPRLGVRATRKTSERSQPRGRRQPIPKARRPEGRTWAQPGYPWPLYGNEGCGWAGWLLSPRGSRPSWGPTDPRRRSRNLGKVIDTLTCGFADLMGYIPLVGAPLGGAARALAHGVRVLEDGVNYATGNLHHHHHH
Experiment: sandwich EIA, capture 208B-1096
readout type: OD492 (OD)
Answers are plain numbers, in OD.

Solved entries (count: 2):
HCV 208A-692 (antibody, V domains shown) VH: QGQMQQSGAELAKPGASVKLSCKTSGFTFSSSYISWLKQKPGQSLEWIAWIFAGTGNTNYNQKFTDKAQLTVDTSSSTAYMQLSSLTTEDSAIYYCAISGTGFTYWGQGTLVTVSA VL: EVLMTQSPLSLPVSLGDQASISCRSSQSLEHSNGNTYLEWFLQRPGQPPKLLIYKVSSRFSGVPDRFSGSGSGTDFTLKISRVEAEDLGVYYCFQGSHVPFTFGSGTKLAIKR | 0.38
HCV 208B-1096 (antibody, V domains shown) VH: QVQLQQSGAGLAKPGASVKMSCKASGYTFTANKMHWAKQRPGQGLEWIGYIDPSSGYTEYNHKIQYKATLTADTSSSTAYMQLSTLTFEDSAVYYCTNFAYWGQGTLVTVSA VL: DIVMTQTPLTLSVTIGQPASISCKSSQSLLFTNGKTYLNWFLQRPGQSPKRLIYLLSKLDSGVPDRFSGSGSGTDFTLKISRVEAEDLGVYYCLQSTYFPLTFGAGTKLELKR | 0.26

Field: next binder
Task: Please give the measured OD492 for this binder: HCV 208A-207 (antibody, V domains shown) VH: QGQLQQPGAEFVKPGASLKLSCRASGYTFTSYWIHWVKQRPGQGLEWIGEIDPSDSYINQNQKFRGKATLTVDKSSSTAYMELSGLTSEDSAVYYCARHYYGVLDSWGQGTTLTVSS VL: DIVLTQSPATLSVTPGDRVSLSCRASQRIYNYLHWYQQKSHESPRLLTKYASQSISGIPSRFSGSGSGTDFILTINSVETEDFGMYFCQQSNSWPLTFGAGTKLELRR
Output: 0.33
